Tested on: STK39
experimental conditions: concentration: 1 μM, replicates: in singlicate; n = 1;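 also: KINOMEscan kinase panel screen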
assay readout: %Inh (%)

[[record]]
compound_structure_string = "O=C(Nc1n[nH]c2nc(-c3cccs3)c(Br)cc12)C1CCCC1"
system_tested = "STK39"
assay_readout = "%Inh"
numeric_value = 33

[[record]]
compound_structure_string = "Cl.Cl.Cl.N#Cc1ccc(CCNc2nccc(-c3cccc(CN4CCNCC4)c3)n2)cc1"
system_tested = "STK39"
assay_readout = "%Inh"
numeric_value = 0

[[record]]
compound_structure_string = "O=c1cc(N2CCOCC2)nc2n(Cc3cccc(Cl)c3Cl)c3ccccc3n12"
system_tested = "STK39"
assay_readout = "%Inh"
numeric_value = 0


----------
System: MAP4K2
experimental conditions: concentration: 1 μM, replicates: in singlicate; n = 1
assay readout: %Inh (%)

[[record]]
molecule = "COc1ccc(CSc2nnc(-c3ccc4c(c3)CCO4)o2)cc1"
system_tested = "MAP4K2"
unit_label = "%"
numeric_value = 0

[[record]]
molecule = "CC(=O)c1cccc(NC(=O)NC2CCN(c3ccnc(Nc4ccc(F)cc4)n3)C2)c1 (stereo not shown) [GSK1379710]"
system_tested = "MAP4K2"
unit_label = "%"
numeric_value = 11

[[record]]
molecule = "O=C1NC(=O)C(c2ccc(Cl)cc2)=C1Nc1ccc(O)cc1 [SB-340867]"
system_tested = "MAP4K2"
unit_label = "%"
numeric_value = 0

[[record]]
molecule = "CC(C)c1ccc(O)cc1Nc1ccnc2ccc(C(F)(F)F)cc12 [GW482059]"
system_tested = "MAP4K2"
unit_label = "%"
numeric_value = 0

[[record]]
molecule = "COc1ccc(Nc2nccc(N3CCC(NC(=O)C(C)c4ccc(Cl)cc4)CC3)n2)cc1 (stereo not shown) [GSK1379812]"
system_tested = "MAP4K2"
unit_label = "%"
numeric_value = 0

[[record]]
molecule = "O=C(Nc1n[nH]c2nc(-c3cccs3)c(Br)cc12)C1CCCC1 [SB-743341]"
system_tested = "MAP4K2"
unit_label = "%"
numeric_value = 0

[[record]]
molecule = "O=C(Nc1n[nH]c2nc(-c3ccco3)c(Br)cc12)C1CCN(Cc2ccccc2)C1.O=C(O)[C@H](O)[C@@H](O)C(=O)O (stereo not shown) [SB-742034]"
system_tested = "MAP4K2"
unit_label = "%"
numeric_value = 14


----------
System: ERBB4
experimental conditions: concentration: 1 μM, replicates: in singlicate; n = 1
Label fulfilled when %Inh is at or above 4%; otherwise label not fulfilled.

[[record]]
compound = "Cn1cncc1-c1cc2c(Nc3ccc(OCc4ccccc4)cc3)ncnc2cn1"
category_label = "fulfilled"

[[record]]
compound = "COC(=O)c1cccc(NC(=O)NC2CCN(c3ccnc(Nc4ccc(OC)cc4)n3)C2)c1 (stereo not shown)"
category_label = "fulfilled"

[[record]]
compound = "COC(=O)C(Cc1ccccc1)NC(=O)NC1CCN(c2ccnc(Nc3ccc(F)cc3)n2)C1 (stereo not shown)"
category_label = "fulfilled"

[[record]]
compound = "COc1ccc2cc(-c3nc(-c4ccccc4C(C)C)[nH]c3-c3ccncc3)ccc2c1"
category_label = "fulfilled"

[[record]]
compound = "O=C(Nc1n[nH]c2nc(-c3cccs3)c(Br)cc12)C1CC1"
category_label = "not fulfilled"

[[record]]
compound = "CS(=O)(=O)Cc1ccc(Nc2nccc(-c3c(-c4cccc(NC(=O)C5CCCCC5)c4)nn4ncccc34)n2)cc1"
category_label = "fulfilled"

[[record]]
compound = "Cc1ccc(NC(=O)Nc2ccc(Cl)cc2)cc1-c1ccc(C(=O)Nc2ccncc2)cc1"
category_label = "not fulfilled"

[[record]]
compound = "COC(=O)C(NC(=O)NC1CCN(c2ccnc(Nc3ccc(F)cc3)n2)C1)c1ccccc1 (stereo not shown)"
category_label = "not fulfilled"

[[record]]
compound = "Fc1ccc(-c2nc3n(c2-c2ccncc2)CCS3)cc1"
category_label = "fulfilled"

[[record]]
compound = "CCn1c(-c2ccccc2)nc2cnccc21"
category_label = "not fulfilled"

[[record]]
compound = "CC(=O)c1c(C)c2cnc(Nc3ccc(N4CCNCC4)cn3)nc2n(C2CCCC2)c1=O"
category_label = "not fulfilled"

[[record]]
compound = "O=C(Nc1n[nH]c2cc(-c3ccsc3)ccc12)C1CC1"
category_label = "fulfilled"

[[record]]
compound = "CNc1nc(-c2ccc3c(N)n[nH]c3c2)cc(N2C[C@@H](C(=O)NC3CCCCC3)OC[C@H]2C)n1"
category_label = "fulfilled"

[[record]]
compound = "CC(C)c1ccc(O)cc1Nc1ccnc2ccc(C(F)(F)F)cc12"
category_label = "not fulfilled"

